Hello, the source for this data is the supplement of paper PMC8617591, in case you need it.

Form field: total FIC50 (one value per entry).
Test system: Mycobacterium tuberculosis Erdman (autoluminescent)
experimentalProtocol: total FIC50 (Loewe) at 50% inhibition, three-drug combination (log2); higher = more antagonistic
settings: in vitro model: cholesterol 0.05 mM; time point: constant (~7 days, model-specific)
Output spec: single numeric token, no unit.

{"compound": "CC[C@@H](CO)NCCN[C@@H](CC)CO [ethambutol] + O=[N+]([O-])c1cn2c(n1)OC[C@@H](OCc1ccc(OC(F)(F)F)cc1)C2 [pretomanid] + CO[C@H]1/C=C/O[C@@]2(C)Oc3c(C)c(O)c4c(O)c(c(/C=N/N5CCN(C)CC5)c(O)c4c3C2=O)NC(=O)/C(C)=C\\C=C\\[C@H](C)[C@H](O)[C@@H](C)[C@@H](O)[C@@H](C)[C@H](OC(C)=O)[C@@H]1C [rifampicin]", "total FIC50": 0.599}

(Q) For the compound shown here, CC[C@@H](CO)NCCN[C@@H](CC)CO [ethambutol] + CC(=O)NC[C@H]1CN(c2ccc(N3CCOCC3)c(F)c2)C(=O)O1 [linezolid] + COc1c(N2C[C@@H]3CCCN[C@@H]3C2)c(F)cc2c(=O)c(C(=O)O)cn(C3CC3)c12 [moxifloxacin] , give the reported total FIC50.
(A) -0.0271

====

Tested on: Mycobacterium tuberculosis Erdman (autoluminescent)
experimentalProtocol: AUC25, normalised area under dose response up to IC25 (three-drug combination) (fraction (0-1)); higher = more potent at low dose
settings: in vitro model: valerate; time point: constant (~7 days, model-specific)
measurementType: AUC25
No unit in the answer, only the number.

{"molecule": "CC[C@@H](CO)NCCN[C@@H](CC)CO [ethambutol] + CC(=O)NC[C@H]1CN(c2ccc(N3CCOCC3)c(F)c2)C(=O)O1 [linezolid] + CO[C@H]1/C=C/O[C@@]2(C)Oc3c(C)c(O)c4c(O)c(c(/C=N/N5CCN(C)CC5)c(O)c4c3C2=O)NC(=O)/C(C)=C\\C=C\\[C@H](C)[C@H](O)[C@@H](C)[C@@H](O)[C@@H](C)[C@H](OC(C)=O)[C@@H]1C [rifampicin]", "AUC25": 0.0592}

Okay, now this molecule:
(Q) GET /values?readout=AUC25&item= COc1nc2ccc(Br)cc2cc1[C@@H](c1ccccc1)[C@@](O)(CCN(C)C)c1cccc2ccccc12 [bedaquiline] + CC[C@@H](CO)NCCN[C@@H](CC)CO [ethambutol] + CO[C@H]1/C=C/O[C@@]2(C)Oc3c(C)c(O)c4c(O)c(c(/C=N/N5CCN(C6CCCC6)CC5)c(O)c4c3C2=O)NC(=O)/C(C)=C\C=C\[C@H](C)[C@H](O)[C@@H](C)[C@@H](O)[C@@H](C)[C@H](OC(C)=O)[C@@H]1C [rifapentine]
(A) 0.0547

====

# maps each entry to its AUC25
Test system: Mycobacterium tuberculosis Erdman (autoluminescent)
experimentalProtocol: AUC25, normalised area under dose response up to IC25 (three-drug combination) (fraction (0-1)); higher = more potent at low dose
settings: in vitro model: cholesterol-high 0.2 mM; time point: terminal (~4-5 doublings, model-specific)
// no unit, no text: just the number

Known results for compounds:
{"compound": "NNC(=O)c1ccncc1 [isoniazid] + COc1c(N2C[C@@H]3CCCN[C@@H]3C2)c(F)cc2c(=O)c(C(=O)O)cn(C3CC3)c12 [moxifloxacin] + NC(=O)c1cnccn1 [pyrazinamide]", "AUC25": 0.0668}
{"compound": "CC(C)/N=c1\\cc2n(-c3ccc(Cl)cc3)c3ccccc3nc-2cc1Nc1ccc(Cl)cc1 [clofazimine] + NC(=O)c1cnccn1 [pyrazinamide] + CO[C@H]1/C=C/O[C@@]2(C)Oc3c(C)c(O)c4c(O)c(c(/C=N/N5CCN(C)CC5)c(O)c4c3C2=O)NC(=O)/C(C)=C\\C=C\\[C@H](C)[C@H](O)[C@@H](C)[C@@H](O)[C@@H](C)[C@H](OC(C)=O)[C@@H]1C [rifampicin]", "AUC25": 0.107}

(Q) # input compound: COc1c(N2C[C@@H]3CCCN[C@@H]3C2)c(F)cc2c(=O)c(C(=O)O)cn(C3CC3)c12 [moxifloxacin] + O=[N+]([O-])c1cn2c(n1)OC[C@@H](OCc1ccc(OC(F)(F)F)cc1)C2 [pretomanid] + CO[C@H]1/C=C/O[C@@]2(C)Oc3c(C)c(O)c4c(O)c(c(/C=N/N5CCN(C6CCCC6)CC5)c(O)c4c3C2=O)NC(=O)/C(C)=C\C=C\[C@H](C)[C@H](O)[C@@H](C)[C@@H](O)[C@@H](C)[C@H](OC(C)=O)[C@@H]1C [rifapentine] ; wanted: its AUC25
(A) 0.04

====

Test system: Mycobacterium tuberculosis Erdman (autoluminescent)
experimentalProtocol: GRinf, maximum normalised growth rate inhibition (three-drug combination) (unitless (-1 to 1)); higher = less effect (negative = killing)
settings: in vitro model: cholesterol 0.05 mM; time point: constant (~7 days, model-specific)
measurementType: GRinf
Lab note: record just the number, no unit beside it.

{"compound": "CC(C)/N=c1\\cc2n(-c3ccc(Cl)cc3)c3ccccc3nc-2cc1Nc1ccc(Cl)cc1 [clofazimine] + NNC(=O)c1ccncc1 [isoniazid] + CO[C@H]1/C=C/O[C@@]2(C)Oc3c(C)c(O)c4c(O)c(c(/C=N/N5CCN(C6CCCC6)CC5)c(O)c4c3C2=O)NC(=O)/C(C)=C\\C=C\\[C@H](C)[C@H](O)[C@@H](C)[C@@H](O)[C@@H](C)[C@H](OC(C)=O)[C@@H]1C [rifapentine]", "measurementType": "GRinf", "quantitativeReadout": 0.0951}
{"compound": "CC(=O)NC[C@H]1CN(c2ccc(N3CCOCC3)c(F)c2)C(=O)O1 [linezolid] + NC(=O)c1cnccn1 [pyrazinamide] + CO[C@H]1/C=C/O[C@@]2(C)Oc3c(C)c(O)c4c(O)c(c(/C=N/N5CCN(C6CCCC6)CC5)c(O)c4c3C2=O)NC(=O)/C(C)=C\\C=C\\[C@H](C)[C@H](O)[C@@H](C)[C@@H](O)[C@@H](C)[C@H](OC(C)=O)[C@@H]1C [rifapentine]", "measurementType": "GRinf", "quantitativeReadout": -0.43}

Next compound, GRinf to be filled in.
(Q) Entry CC(C)/N=c1\cc2n(-c3ccc(Cl)cc3)c3ccccc3nc-2cc1Nc1ccc(Cl)cc1 [clofazimine] + CC[C@@H](CO)NCCN[C@@H](CC)CO [ethambutol] + NC(=O)c1cnccn1 [pyrazinamide] has what GRinf?
(A) -0.487

====

Each entry below lists one item and its recorded Einf value.
System: Mycobacterium tuberculosis Erdman (autoluminescent)
experimentalProtocol: Einf, fitted maximum growth inhibition of three-drug combination (fraction); higher = stronger maximal inhibition
settings: in vitro model: valerate; time point: constant (~7 days, model-specific)
// return a plain number; no unit text

{"molecule": "CC(=O)NC[C@H]1CN(c2ccc(N3CCOCC3)c(F)c2)C(=O)O1 [linezolid] + COc1c(N2C[C@@H]3CCCN[C@@H]3C2)c(F)cc2c(=O)c(C(=O)O)cn(C3CC3)c12 [moxifloxacin] + CO[C@H]1/C=C/O[C@@]2(C)Oc3c(C)c(O)c4c(O)c(c(/C=N/N5CCN(C)CC5)c(O)c4c3C2=O)NC(=O)/C(C)=C\\C=C\\[C@H](C)[C@H](O)[C@@H](C)[C@@H](O)[C@@H](C)[C@H](OC(C)=O)[C@@H]1C [rifampicin]", "quantitativeReadout": 0.803}

Field: next molecule
(Q) Look at this molecule and give its reported Einf. CC[C@@H](CO)NCCN[C@@H](CC)CO [ethambutol] + NNC(=O)c1ccncc1 [isoniazid] + O=[N+]([O-])c1cn2c(n1)OC[C@@H](OCc1ccc(OC(F)(F)F)cc1)C2 [pretomanid]
(A) 0.867

====

System: Mycobacterium tuberculosis Erdman (autoluminescent)
experimentalProtocol: GRinf, maximum normalised growth rate inhibition (unitless (-1 to 1)); higher = less effect (negative = killing)
settings: in vitro model: standard 7H9 glycerol; time point: constant = terminal
measurementType: GRinf

{"compound": "COc1c(N2C[C@@H]3CCCN[C@@H]3C2)c(F)cc2c(=O)c(C(=O)O)cn(C3CC3)c12 [moxifloxacin] + O=[N+]([O-])c1cn2c(n1)OC[C@@H](OCc1ccc(OC(F)(F)F)cc1)C2 [pretomanid]", "GRinf": -0.166}
{"compound": "CC(=O)NC[C@H]1CN(c2ccc(N3CCOCC3)c(F)c2)C(=O)O1 [linezolid] + O=[N+]([O-])c1cn2c(n1)OC[C@@H](OCc1ccc(OC(F)(F)F)cc1)C2 [pretomanid]", "GRinf": -0.171}
{"compound": "CC(C)/N=c1\\cc2n(-c3ccc(Cl)cc3)c3ccccc3nc-2cc1Nc1ccc(Cl)cc1 [clofazimine] + CO[C@H]1/C=C/O[C@@]2(C)Oc3c(C)c(O)c4c(O)c(c(/C=N/N5CCN(C)CC5)c(O)c4c3C2=O)NC(=O)/C(C)=C\\C=C\\[C@H](C)[C@H](O)[C@@H](C)[C@@H](O)[C@@H](C)[C@H](OC(C)=O)[C@@H]1C [rifampicin]", "GRinf": 0.00747}

# next compound below
(Q) Entry NNC(=O)c1ccncc1 [isoniazid] + CO[C@H]1/C=C/O[C@@]2(C)Oc3c(C)c(O)c4c(O)c(c(/C=N/N5CCN(C)CC5)c(O)c4c3C2=O)NC(=O)/C(C)=C\C=C\[C@H](C)[C@H](O)[C@@H](C)[C@@H](O)[C@@H](C)[C@H](OC(C)=O)[C@@H]1C [rifampicin] has what GRinf?
(A) 0.103
